Test system: Malme-3M
Assay: NCI tumour cell line growth inhibition, 48 h
Active and inactive are the calls of the source. Rule as the data show it: active = GI50 up to about 1.1 µM and inactive = higher.
Lab note: assign the record to one of y = active, n = inactive

Past entries and their recorded results:
In [3]: df
Out[3]:
                                   molecule  class_assignment
0  CC1(C)CC(=O)C(CC(C(=O)C(=O)Nc2cc(C(F)(F)F)ccc2Cl)C(=O)c2ccco2)C(=O)C1 (stereo unspecified)                 n
1                  COc1ccccc1NC(=O)CSC(N)=O                 n
2  CC(C)(SCc1ccccc1)C(N)C(=O)O (stereo unspecified)                 n
3  CCOC(=O)c1c2c(n(Cc3ccccc3)c1C)C(=O)C(=O)c1ccccc1-2                 y

INPUT: Can you look up the reported call for NC(=O)CCC(N=C(N)c1csc(C2OC(CO)C(O)C2O)n1)C(=O)O (stereo unspecified) for me?
OUTPUT: n

INPUT: Can you look up the reported call for OCN(CO)c1ccc2c(c1)Cc1cc(F)ccc1-2 for me?
OUTPUT: n

INPUT: Can you look up the reported call for CCCc1nc(NC#N)nc(C(=O)NC23CC4CC(CC(C4)C2)C3)c1C for me?
OUTPUT: n

INPUT: Can you look up the reported call for C[C@@H]1C(=O)C[C@H]2C(C)(C)CCC[C@]2(C)[C@@]1(O)CCc1ccoc1 for me?
OUTPUT: n

INPUT: Can you look up the reported call for N=C(N)SC1c2ccccc2-c2cc([N+](=O)[O-])ccc21 (stereo unspecified) for me?
OUTPUT: n

INPUT: Can you look up the reported call for O=[N+]([O-])c1ccc(Cl)c2c([N+](=O)[O-])cccc12 for me?
OUTPUT: n

INPUT: Can you look up the reported call for CN(C)CC(C)(C)C(=O)/C=C/c1ccccc1 for me?
OUTPUT: n

----------
Test system: RXF 393
Assay: NCI tumour cell line growth inhibition, 48 h
Active and inactive are the calls of the source. No stated cut-off is given here; in the data, active = GI50 up to about 1.1 µM and inactive = higher.
Assay Endpoint: GI50

>>> print(df.to_string())
                                   compound       endpoint_value
0  CCCc1nc(NC#N)nc(C(=O)NC23CC4CC(CC(C4)C2)C3)c1C  > 100 µM (inactive)
1  CC(C)(C)c1cc(C(P(=O)(c2ccccc2)c2ccccc2)P(=O)(c2ccccc2)c2ccccc2)cc(C(C)(C)C)c1O   3.19 µM (inactive)
2           CCc1n[nH]c(=O)n1NC(=O)CCCC(=O)O  > 100 µM (inactive)

# return GI50 for each item in the list
1. CCNc1cc2oc(=O)cc(C(F)(F)F)c2cc1C
2. NCC(=O)OCN1C(=O)C2C3C=CC(C2C1=O)C1C2C(=O)N(COC(=O)CN)C(=O)C2C31 (centres undefined)
3. C[C@H](CCC(=O)O)[C@H]1CC[C@H]2[C@@H]3[C@H](O)[C@H](O)[C@@H]4C[C@H](O)CC[C@]4(C)[C@H]3CC[C@]12C
4. C=C1CC=CC(C)(C)C1C/C=C(\C)C(O)CBr (centres undefined)
5. [O-][s+]1c2c(Cc3ccccc3)c(Cc3ccccc3)c1CCc1cccc(c1)CC2
6. COc1cc(/C=C/c2ccnc3ccccc23)cc(OC)c1OC

OUTPUT:
1. > 100 µM (inactive)
2. 24 µM (inactive)
3. > 100 µM (inactive)
4. 26.7 µM (inactive)
5. 3.86 µM (inactive)
6. 1.63 µM (inactive)
